Provide the recorded molar extinction coefficient for the entries that follow.
# procedure_details: absorption spectrum (maximum absorption wavelength, molar extinction coefficient)
# Type: physicochemical

Before answering, review these 4 worked examples.
compound: COc1c(NC2CCCCC2C(=O)O)c2c(=O)cc(OC)c3c4c(OC)cc(=O)c5c(O)c(NC6CCCCC6C(=O)O)c6c(c(c1C(C(C)=O)C(C)=C6)c23)c54 (centres unmarked) [HB-16b]
result: 26,000 M^−1cm^−1
--
compound: COCCOCCOCCOCCOCCOCCOCCOCCOC(=O)C1CCC(CNc2c3c4c5c(c(OC)c(=O)c6c(O)cc(OC)c(c7c(OC)cc(NCC8CCC(C(=O)OCCOCCOCCOCCOCCOCCOCCOCCOC)CC8)c(c2=O)c74)c65)CC(C)=C3)CC1 (centres unmarked) [HC-13c-PEG8]
result: 32,500 M^−1cm^−1
--
compound: COCCOCCOCCOCCOCCOCCOCCC(=O)N1CCC(CNc2c(O)c3c(=O)cc(OC)c4c5c(OC)cc(=O)c6c(NCC7CCN(C(=O)CCOCCOCCOCCOCCOCCOCCOC)CC7)c(OC)c7c(c(c2C=C(C)C7C(C)=O)c34)c65)CC1 (centres unmarked) [HB-31b-PEG6]
result: 31,000 M^−1cm^−1
--
compound: COCCOCCC(=O)OCCOCCNc1c(NCCOCCOC(=O)CCOCCOC)c2c(=O)cc(OC)c3c4c(OC)cc(=O)c5c(O)c(OC)c6c(c(c1C=C(C)C6C(C)=O)c23)c54 (centres unmarked)
result: 31,000 M^−1cm^−1

Proceeding to the next compound to report its molar extinction coefficient.
Give the value of molar extinction coefficient reported for the following: COCCOCCC(=O)N1CCC(CNc2c(NCC3CCN(C(=O)CCOCCOC)CC3)c3c(=O)cc(OC)c4c5c(OC)cc(=O)c6c(O)c(OC)c7c(c(c2C=C(C)C7C(C)=O)c34)c65)CC1 (centres unmarked) [HB-31a-PEG1]
32,000 M^−1cm^−1
